# MEASUREMENT PROTOCOL: TOX21_p53_BLA_p4_viability: Viability Assessment in the Tox21 HCT-116 p53 Agonism Beta-lactamase Assay, Phase 4 (AID 2283597);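 further: hits lower the luminescence signal meaning cytotoxicity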
# Text: TOX21_p53_BLA_p4 is a cell-based, single-readout assay that uses HCT116, a human intestinal cell line, […] in a 1536-well plate.TOX21_p53_BLA_p4_viability is an assay readout measuring cellular ATP content and detected with CellTiter-Glo Luciferase-coupled ATP quantitation.TOX21_p53_BLA_p4_viability used a type of viability reporter where loss-of-signal activity can be used to understand changes in the cell viability. […]
Results filed as inconclusive are left out. Active and inactive are the calls of the source. How the source made its calls: active means hit-call score of the fitted dose curve at least 0.9, where 1 is the maximum; inconclusive means response in the unintended direction; inactive means score below 0.9.
Classes to choose from: active, inactive

[Q] Please indicate how the test categorized `CCOC(=O)C(C#N)=C(c1ccccc1)c1ccccc1` .
[A] inactive

[Q] Please indicate how the test categorized `C[N+](C)(C)CCCCCC[N+](C)(C)C` .
[A] inactive

[Q] Please indicate how the test categorized `COC(=O)C=C(C)CCC=C(C)C` .
[A] inactive

Next molecule, please.
[Q] Please indicate how the test categorized `C/C=C(\C)C(=O)OCCc1ccccc1` .
[A] inactive

* * *

# EXPERIMENTAL SYSTEM: Nuclear receptor subfamily 1 group I member 3 (Homo sapiens) (UniProt Q14994)
# Sequence (Q14994 whole entry, looked up): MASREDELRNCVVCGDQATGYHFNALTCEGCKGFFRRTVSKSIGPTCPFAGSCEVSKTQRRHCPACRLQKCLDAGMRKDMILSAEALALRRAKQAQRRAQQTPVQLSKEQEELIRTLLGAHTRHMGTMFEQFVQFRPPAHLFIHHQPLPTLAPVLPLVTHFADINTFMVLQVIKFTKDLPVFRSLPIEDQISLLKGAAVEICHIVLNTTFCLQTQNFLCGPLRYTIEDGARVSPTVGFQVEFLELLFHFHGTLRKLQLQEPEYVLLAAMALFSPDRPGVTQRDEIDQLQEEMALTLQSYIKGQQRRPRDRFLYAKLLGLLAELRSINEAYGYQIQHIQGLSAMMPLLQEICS
# MEASUREMENT PROTOCOL: ATG_CAR_TRANS: Attagene TRANS-FACTORIAL HepG2 Assay for human Constitutive Androstane Receptor (CAR) (AID 2282969);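 further: activators raise reporter mRNA above DMSO so AC50 marks induction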
# ASSAY CONDITIONS: HepG2 Attagene TRANS-FACTORIAL CAR reporter
Records with an inconclusive call do not appear. Active and inactive are the calls of the source. The calls were made as follows: active = hit-call score of the fitted dose curve at least 0.9, where 1 is the maximum; inconclusive = response in the unintended direction; inactive = score below 0.9.
MEASURED PROPERTY: outcome

Sample `C=CC(=O)OCCCC` , system: Nuclear receptor subfamily 1 group I member 3 (Homo sapiens) (UniProt Q14994). Its outcome is inactive

Sample NC1CCCCC1N (stereo not drawn) , system: Nuclear receptor subfamily 1 group I member 3 (Homo sapiens) (UniProt Q14994). Its outcome is inactive

Sample `CC(=O)O[C@H]1C[C@@H]2CC[C@@]1(C)C2(C)C` , system: Nuclear receptor subfamily 1 group I member 3 (Homo sapiens) (UniProt Q14994). Its outcome is inactive

Sample `C[C@H]1C[C@@H](O)CC(C)(C)C1` , system: Nuclear receptor subfamily 1 group I member 3 (Homo sapiens) (UniProt Q14994). Its outcome is inactive

Sample `Cc1ccc(-c2ccccc2)cc1` , system: Nuclear receptor subfamily 1 group I member 3 (Homo sapiens) (UniProt Q14994). Its outcome is inactive

More entries:
Sample CCCC(=O)C(CC)Sc1ccoc1C (stereo not drawn) , system: Nuclear receptor subfamily 1 group I member 3 (Homo sapiens) (UniProt Q14994). Its outcome is inactive

Sample `Nc1ccc(N)c2c1C(=O)c1ccccc1C2=O` , system: Nuclear receptor subfamily 1 group I member 3 (Homo sapiens) (UniProt Q14994). Its outcome is inactive

Sample `CC1(C)C2=CCCC(C)(C)[C@]23CC[C@H]1C3` , system: Nuclear receptor subfamily 1 group I member 3 (Homo sapiens) (UniProt Q14994). Its outcome is inactive

Sample `CCCOCCO` , system: Nuclear receptor subfamily 1 group I member 3 (Homo sapiens) (UniProt Q14994). Its outcome is inactive

Sample CN(C)CCOC(C)(c1ccccc1)c1ccccn1 (stereo not drawn) , system: Nuclear receptor subfamily 1 group I member 3 (Homo sapiens) (UniProt Q14994). Its outcome is inactive

* * *

# Read-out: Urokinase-type plasminogen activator receptor (uPAR), PLAUR (gene 5329)
# MEASUREMENT PROTOCOL: BSK_4H_uPAR: BioMAP Diversity Plus: 4H Assay for Urokinase-type plasminogen activator receptor (uPAR) Biomarker Activity (AID 2283030)
# ASSAY CONDITIONS: primary human endothelial cells (HUVEC); actives raise or lower the signal
Active and inactive are the calls of the source. Rule for the calls: active = hit-call score of the fitted dose curve at least 0.9, where 1 is the maximum; inactive = score below 0.9.
Classes to choose from: 1 (yes) for active, 0 (no) for inactive

As a guide, the following entries are already answered.
[Q] Please indicate how the test categorized `CC(=O)Nc1ccc(C(=O)CCl)cc1` .
[A] 1 (yes)

[Q] Please indicate how the test categorized `O=CN1CCOCC1` .
[A] 0 (no)

[Q] Please indicate how the test categorized `CCCCOC(=O)CCCCCCCC(=O)OCCCC` .
[A] 0 (no)

[Q] Please indicate how the test categorized `CC(C)(N=C=O)c1cccc(C(C)(C)N=C=O)c1` .
[A] 0 (no)

[Q] Please indicate how the test categorized `Clc1cc(Cl)c(-c2c(Cl)c(Cl)cc(Cl)c2Cl)cc1Cl` .
[A] 1 (yes)

[Q] Please indicate how the test categorized `CCCCCCCCCCCCCCCC(=O)OC/C=C(C)/C=C/C=C(C)/C=C/C1=C(C)CCCC1(C)C` .
[A] 0 (no)

More entries:
[Q] Please indicate how the test categorized `COc1ccc(CCN2CCC(Nc3nc4ccccc4n3Cc3ccc(F)cc3)CC2)cc1` .
[A] 1 (yes)

* * *

# Read-out: Plasminogen activator inhibitor-1 (PAI1), SERPINE1 (gene 5054)
# MEASUREMENT PROTOCOL: BSK_MyoF_PAI1: BioMAP Diversity Plus: MyoF Assay for Plasminogen activator inhibitor-1 (PAI1) Biomarker Activity (AID 2284256)
# ASSAY CONDITIONS: primary human lung fibroblasts
Activity calls are given as the source filed them. How the source made its calls: active means hit-call score of the fitted dose curve at least 0.9, where 1 is the maximum; inactive means score below 0.9.
Classes to choose from: label 1 for active, label 0 for inactive

As a guide, the following entries are already answered.
[Q] Please indicate how the test categorized `CN(c1nccc(=O)[nH]1)C1CCN(c2nc3ccccc3n2Cc2ccc(F)cc2)CC1` .
[A] label 0

[Q] Please indicate how the test categorized `CSCCC=O` .
[A] label 0

[Q] Please indicate how the test categorized `CC(C)(N=C=O)c1cccc(C(C)(C)N=C=O)c1` .
[A] label 0

[Q] Please indicate how the test categorized `Clc1cc(Cl)c(-c2c(Cl)c(Cl)cc(Cl)c2Cl)cc1Cl` .
[A] label 1

[Q] Please indicate how the test categorized `CCCCN(CCCC)C(=O)N(CCCC)CCCC` .
[A] label 1

[Q] Please indicate how the test categorized `CC1(C)C2=CCCC(C)(C)[C@]23CC[C@H]1C3` .
[A] label 1

More entries:
[Q] Please indicate how the test categorized `CCN(CC)C(=O)N(CC)CC` .
[A] label 0

[Q] Please indicate how the test categorized `O=C1OC2(c3ccccc31)c1ccc(O)c(Br)c1Oc1c2ccc(O)c1Br` .
[A] label 1

[Q] Please indicate how the test categorized `c1ccc2cc(Nc3ccc(Nc4ccc5ccccc5c4)cc3)ccc2c1` .
[A] label 0

[Q] Please indicate how the test categorized CC(C=O)Cc1ccc(C(C)(C)C)cc1 (stereo unspecified) .
[A] label 0

[Q] Please indicate how the test categorized `CCCCOC(=O)CCCCCCCC(=O)OCCCC` .
[A] label 0

* * *

# Read-out: Matrix Metallopeptidase 1 (MMP1), MMP1 (gene 4312)
# MEASUREMENT PROTOCOL: BSK_BE3C_MMP1: BioMAP Diversity Plus: BE3C Assay for Matrix Metallopeptidase 1 (MMP1) Biomarker Activity (AID 2283024)
# ASSAY CONDITIONS: primary human bronchial epithelial cells; actives raise or lower the signal
Activity calls are given as the source filed them. Rule for the calls: active = hit-call score of the fitted dose curve at least 0.9, where 1 is the maximum; inactive = score below 0.9.
Classes to choose from: yes (active), no (inactive)

As a guide, the following entries are already answered.
[Q] Please indicate how the test categorized `c1ccc(CCc2ccccc2)cc1` .
[A] yes

[Q] Please indicate how the test categorized `CCN(CC)C(=O)N(CC)CC` .
[A] no

[Q] Please indicate how the test categorized `C=C(C)C(=O)OCCOCCOCCOCCOC(=O)C(=C)C` .
[A] no

[Q] Please indicate how the test categorized `CCCCN(CCCC)C(=O)N(CCCC)CCCC` .
[A] yes

Next compound, please.
[Q] Please indicate how the test categorized `O=C1c2ccccc2C(=O)c2c(O)ccc(O)c21` .
[A] no

* * *

# MEASUREMENT PROTOCOL: CCTE_Shafer_MEA_acute_interburst_interval_mean: CCTE's Neural Acute Assay for Mean Interburst Interval, Shafer Lab (AID 2284016);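 further: percent change of mean interburst interval versus each well's own pre-dose baseline; curves fitted for decrease in interburst interval relative to DMSO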
# Experimental: CCTE_Shafer_MEA_acute assay is conducted using Axion Biosystems 48 well microelectrode array (MEA) plates and Maestro recording system. Each well of the MEA plate contains a grid of 16 microelectrodes embedded in the culture surface. Electrically active cells, such as neurons, can be cultured over the electrodes, and electrical activity in these cells can be recorded extracellularly. […]
Activity calls are given as the source filed them. The calls were made as follows: active = hit-call score of the fitted dose curve at least 0.9, where 1 is the maximum; inactive = score below 0.9.
Classes to choose from: active, inactive

[Q] Please indicate how the test categorized `CC1(C)CCC[C@]2(C)[C@H]3CCO[C@]3(C)CC[C@@H]12` .
[A] inactive

[Q] Please indicate how the test categorized `O=CN1CCOCC1` .
[A] inactive

[Q] Please indicate how the test categorized `CN(C)C(=S)SC(=S)N(C)C` .
[A] inactive

[Q] Please indicate how the test categorized COCCc1ccc(OCC(O)CNC(C)C)cc1 (configuration not stated) .
[A] inactive

[Q] Please indicate how the test categorized CC(CN=Cc1ccccc1O)N=Cc1ccccc1O (configuration not stated) .
[A] inactive

[Q] Please indicate how the test categorized `O=C(Nc1ccc2c(O)c(N=Nc3ccc(N=Nc4ccc(S(=O)(=O)O)cc4)cc3)c(S(=O)(=O)O)cc2c1)c1ccccc1` .
[A] active

Next compound, please.
[Q] Please indicate how the test categorized `Oc1c(Cl)cc(Cl)c(Cl)c1Cc1c(O)c(Cl)cc(Cl)c1Cl` .
[A] active
